The origin of these recorded values is patent US20100197724A1.

// pIC50 lookup, one value per entry
- SYSTEM TESTED: human neurokinin-1 receptor (NK1R) (Homo sapiens, UniProt P25103)
- Construct: expressed in transfected cells
- Sequence (P25103 whole entry): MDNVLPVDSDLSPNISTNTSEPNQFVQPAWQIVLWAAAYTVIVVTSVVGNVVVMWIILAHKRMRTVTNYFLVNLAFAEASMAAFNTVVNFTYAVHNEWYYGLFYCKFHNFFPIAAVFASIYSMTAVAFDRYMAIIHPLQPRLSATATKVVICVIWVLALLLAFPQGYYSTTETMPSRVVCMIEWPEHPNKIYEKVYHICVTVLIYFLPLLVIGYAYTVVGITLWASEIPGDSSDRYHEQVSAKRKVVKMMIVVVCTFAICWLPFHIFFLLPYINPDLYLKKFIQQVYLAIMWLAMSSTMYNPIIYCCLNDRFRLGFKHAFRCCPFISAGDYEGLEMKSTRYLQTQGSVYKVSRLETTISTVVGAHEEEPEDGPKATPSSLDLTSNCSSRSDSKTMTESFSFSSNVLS
- TEST PROTOCOL: 125I-substance P binding assay of human NK1R expressed in COS or CHO cells
- SETTINGS: competition with 125I-substance P
pIC50: −log10 of the molar value.
MEASUREMENT KIND: pIC50

[[record]]
compound = "CC(C)(C(=O)N1CC[C@@H]2CN(C3=CC(=O)CC3)C[C@H]2[C@@H]1c1ccc(F)cc1)c1cc(C(F)(F)F)cc(C(F)(F)F)c1 (racemic)"
reported_result = 9.77

[[record]]
compound = "Cc1ccccc1[C@H]1[C@@H]2CN(C(C)C)C[C@H]2CCN1C(=O)N(C)[C@H](C)c1cc(C(F)(F)F)cc(C(F)(F)F)c1"
reported_result = 10.36

[[record]]
compound = "Cc1cc(F)ccc1[C@H]1[C@@H]2CN(Cc3ccccc3)C[C@H]2CCN1C(=O)N(C)[C@H](C)c1cc(C(F)(F)F)cc(C(F)(F)F)c1"
reported_result = 10.28

[[record]]
compound = "Cc1cc(F)ccc1[C@H]1C2CN(C3=CC(=O)OC3)C[C@H]2CCN1C(=O)N(C)[C@H](C)c1cc(C(F)(F)F)cc(C(F)(F)F)c1 (stereo partly shown)"
reported_result = 9.94

[[record]]
compound = "CC(=O)N1CCC(N2C[C@H]3CCN(C(=O)N(C)[C@H](C)c4cc(C(F)(F)F)cc(C(F)(F)F)c4)[C@@H](c4ccccc4C)[C@@H]3C2)CC1"
reported_result = 10.05

[[record]]
compound = "Cc1ccccc1[C@H]1C2CN(C3=CC(=O)OC3)C[C@H]2CCN1C(=O)N(C)[C@H](C)c1cc(C(F)(F)F)cc(C(F)(F)F)c1 (stereo partly shown)"
reported_result = 10.08

[[record]]
compound = "Cc1ccccc1[C@H]1C2CN(CC(C)(C)CO)C[C@H]2CCN1C(=O)N(C)[C@H](C)c1cc(C(F)(F)F)cc(C(F)(F)F)c1 (stereo partly shown)"
reported_result = 10.03

[[record]]
compound = "Cc1cc(F)ccc1[C@H]1[C@@H]2CN(C3CCOCC3)C[C@H]2CCN1C(=O)N(C)[C@H](C)c1cc(C(F)(F)F)cc(C(F)(F)F)c1"
reported_result = 9.95

[[record]]
compound = "CC(c1cc(C(F)(F)F)cc(C(F)(F)F)c1)N(C)C(=O)N1CC[C@@H]2CN(C3=CC(=O)CC3)CC2[C@@H]1c1ccc(F)cc1 (stereo partly shown)"
reported_result = 9.80

[[record]]
compound = "Cc1ccccc1[C@H]1[C@@H]2CN(C(N)=O)C[C@H]2CCN1C(=O)N(C)[C@H](C)c1cc(C(F)(F)F)cc(C(F)(F)F)c1"
reported_result = 10.22

[[record]]
compound = "Cc1ccccc1[C@H]1[C@@H]2CN(CC(N)=O)C[C@H]2CCN1C(=O)N(C)[C@H](C)c1cc(C(F)(F)F)cc(C(F)(F)F)c1"
reported_result = 10.15

[[record]]
compound = "Cc1ccccc1[C@H]1[C@@H]2CNC[C@H]2CCN1C(=O)N(C)[C@H](C)c1cc(C(F)(F)F)cc(C(F)(F)F)c1"
reported_result = 10.39

[[record]]
compound = "Cc1ccccc1[C@H]1[C@@H]2CN(C3CCOCC3)C[C@H]2CCN1C(=O)N(C)[C@H](C)c1cc(C(F)(F)F)cc(C(F)(F)F)c1"
reported_result = 10.07

